Target: Acetylcholinesterase (Homo sapiens)
Experiment: Acetylcholinesterase (AChE) small molecule antagonists: enzyme-based qHTS assay with human liver microsomes (AID 1347399); further: nearly all actives have a fitted effect of over 60% in size
Settings: qHTS inhibition; series mostly up to 115 µM
Active and inactive are the calls of the source. The call rests on the fitted dose curve.
Outcome codes: active, inactive

compound	label value
CCCCC(CC)CO[N+](=O)[O-] (configuration not stated)	inactive
CCCC[P+](CC)(CCCC)CCCC (tested in a mixture with another compound)	inactive
CC(C)(c1ccccc1)c1cc(-n2nc3ccccc3n2)c(O)c(C(C)(C)c2ccccc2)c1	inactive
O=C=NC1CCCCC1	inactive
C[C@]12C=CC3=C4CCC(=O)C=C4CC[C@H]3[C@@H]1CC[C@@H]2O	inactive
CC(C)(C)NCC(O)c1ccccc1Cl (configuration not stated)	inactive
O=C(Cc1ccccc1)OCCc1ccccc1	inactive
CC(C)c1ccc(NC(=O)N(C)C)cc1	inactive
CCCBr	inactive
CC(Cl)C(=O)O (configuration not stated)	inactive
CCCCC(CC)COC(=O)c1c(Br)c(Br)c(Br)c(Br)c1C(=O)OCC(CC)CCCC (configuration not stated)	inactive
C[C@H]1[C@@H]2Cc3ccc(O)cc3[C@@]1(C)CCN2C	active
OCCSSCCO	inactive
CN(C)c1ccc(N=O)cc1	inactive
O=[N+]([O-])O[C@H]1CO[C@H]2[C@@H]1OC[C@H]2O[N+](=O)[O-]	inactive
OC[P+](CO)(CO)CO	inactive
O=C(N/N=C/c1ccc([N+](=O)[O-])o1)c1cc([N+](=O)[O-])cc([N+](=O)[O-])c1O	inactive

====

Assay: qHTS assay for identifying genotoxic compounds that show differential cytotoxicity against isogenic chicken DT40 cell lines with known DNA damage response pathways - Rev3 mutant cell line (AID 743014); further: nearly all actives have a fitted effect of over 55% in size
Conditions: chicken DT40 Rev3-/- viability, CellTiter-Glo, 40 h; series mostly up to 68.4 µM
Inconclusive results are not listed. Calls of active or inactive are those of the source. Calls come from the whole dose curve; as a rule, active = well fitted cell-killing curve with a large enough effect in the repeat runs; inconclusive = weak or mixed curves, or effect the other way; inactive = no such curve, though single readings can be large or run the other way.
Labels: yes (1) (active), no (0) (inactive)

compound	label value
CCC1CCC(=O)O1 (configuration not stated)	no (0)
O=S(=O)(Cl)Cl	no (0)
CN(C1CCCCC1)C1CCCCC1	yes (1)
CCOC(=O)NC(O)C(Cl)(Cl)Cl (configuration not stated)	no (0)
Nc1ccccc1C(=O)OCCc1ccccc1	no (0)
CCC[N+](CCC)(CCC)CCC	no (0)
CCN(C(C)=O)c1cccc(-c2ccnc3c(C#N)cnn23)c1	no (0)

====

Assay: qHTS assay for small molecule agonists of the antioxidant response element (ARE) signaling pathway - cell viability counter screen (AID 743203); further: nearly all actives have a fitted effect of over 55% in size
Details: ARE-bla HepG2 viability, CellTiter-Glo luminescence, 16 h; series mostly up to 73.3 µM
Records with an inconclusive call do not appear. Activity calls are given as the source filed them. The call rests on the fitted dose curve.
Outcomes: Y (active), N (inactive)

compound	label value
O=C1CC[C@@]2(O)[C@H]3Cc4ccc(O)c5c4[C@@]2(CCN3CC2CC2)[C@H]1O5	N
CC(C)c1ccc(NC(=O)N(C)C)cc1	N
CN(C)C(=O)Nc1cccc(OC(=O)NC(C)(C)C)c1	N
NC(=O)CF	N
C=C(C)C(=O)OCCCCOC(=O)C(=C)C	N
CCCN(CCC)C(=O)Cc1c(-c2ccc(Cl)cc2)nc2ccc(Cl)cn12	N
O=C1NC(=O)C(=O)C(=O)N1	N
CCOP(=O)(SC(C)CC)N1CCSC1=O (centres undefined)	N
CCSCc1ccccc1OC(=O)NC	N
O=S(=O)(Cl)Cl	N
CCCCNC(=O)OCC#CI	Y
COCc1cnc(C2=NC(C)(C(C)C)C(=O)N2)c(C(=O)O)c1 (centres undefined)	N
NNCCO	N
Cc1nc2ccccc2c(=O)n1-c1ccccc1Cl	N
